# EXPERIMENTAL SYSTEM: steroid sulphatase (STS) (Homo sapiens)
# Sequence (P08842 22-583): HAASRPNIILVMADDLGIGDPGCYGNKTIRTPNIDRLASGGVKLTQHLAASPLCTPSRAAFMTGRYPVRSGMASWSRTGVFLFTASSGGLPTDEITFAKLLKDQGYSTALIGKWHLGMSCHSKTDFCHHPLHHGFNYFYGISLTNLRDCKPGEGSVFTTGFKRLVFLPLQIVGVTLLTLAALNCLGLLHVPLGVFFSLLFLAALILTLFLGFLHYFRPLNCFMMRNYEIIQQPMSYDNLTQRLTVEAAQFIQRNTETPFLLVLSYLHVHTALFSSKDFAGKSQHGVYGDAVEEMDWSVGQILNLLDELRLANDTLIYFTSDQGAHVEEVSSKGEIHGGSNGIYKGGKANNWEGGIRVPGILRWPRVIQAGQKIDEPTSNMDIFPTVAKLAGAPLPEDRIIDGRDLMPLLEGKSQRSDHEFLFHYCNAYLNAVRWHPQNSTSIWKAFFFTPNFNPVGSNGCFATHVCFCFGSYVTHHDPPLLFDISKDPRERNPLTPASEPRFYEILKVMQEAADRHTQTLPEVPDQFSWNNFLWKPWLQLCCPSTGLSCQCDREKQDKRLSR
READOUT KIND: pIC50
One number for each entry, as −log10 of the molar value.

Known pIC50 results, listed for orientation:
C[C@]12CC[C@@H]3c4cc(Cl)c(OS(N)(=O)=O)cc4CC[C@H]3[C@@H]1CCC2=O [Compound 10, 2-Chloroestrone 3-O-sulphamate] ... 9.10
C[C@]12CC[C@@H]3c4cc(I)c(OS(N)(=O)=O)cc4CC[C@H]3[C@@H]1CCC2=O [Compound 7, 2-Iodooestrone 3-O-sulphamate] ... 8.21

Look up pIC50 for the entries below, preserving their order.
1. C[C@]12CCC3c4cc(F)c(OS(N)(=O)=O)cc4CCC3C1CCC2=O (stereo partly shown) [Compound 13, 2-Fluorooestrone-3-O-sulphamate]
2. C[C@]12CC[C@@H]3c4cc(Br)c(OS(N)(=O)=O)cc4CC[C@H]3[C@@H]1CCC2=O [Compound 4, 2-Bromooestrone 3-O-sulphamate]

Completion:
1. 8.25
2. 8.78
